# System: SLC16A11
# assay_protocol: SLC16A11 protein-protein interaction study (immunoprecipitation, quantitative mass spectrometry)
# Design: species or system human
# assay_setup: putative SLC16A11^REF interaction partners; immunoprecipitation from HEK293T cells vs empty vector control; Blandt-Altman
Each record here notes measured BA log fold change.

{"columns": ["molecule", "BA log fold change"],
 "data": [
  ["SURF4 (protein) GQNDLMGTAEDFADQFLRVTKQYLPHVARLCLISTFLEDGIRMWFQWSEQRDYIDTTWNCGYLLASSFVFLNLLGQLTGCVLVLSRNFVQYACFGLFGIIALQTIAYSILWDLKFLMRNLALGGGLLLLLAESRSEGKSMFAGVPTMRESSPKQYMQLGGRVLLVLMFMTLLHFDASFFSIVQNIVGTALMILVAIGFKTKLAALTLVVWLFAINVYFNAFWTIPVYKPMHDFLKYDFFQTMSVIGGLLLVVALGPGGVSMDEKKKEW", 1.33],
  ["TMEM33 (protein) ADTTPNGPQGAGAVQFMMTNKLDTAMWLSRLFTVYCSALFVLPLLGLHEAASFYQRALLANALTSALRLHQRLPHFQLSRAFLAQALLEDSCHYLLYSLIFVNSYPVTMSIFPVLLFSLLHAATYTKKVLDARGSNSLPLLRSVLDKLSANQQNILKFIACNEIFLMPATVFMLFSGQGSLLQPFIYYRFLTLRYSSRRNPYCRTLFNELRIVVEHIIMKPACPLFVRRLCLQSIAFISRLAPTVP", 1.25],
  ["TIMM23B (protein) MEGGGGSGDKTTGVLAGFFGAGEAGYSHADLAGVPLTGMNPLCPYLNVDPRYLVQDTDEFILPTGANKTWGRFELAFFTIGGCCMTGAAFGAMNGLRLGLKETQNMAWSKPGNVQILNMVTRQGALWANTLGSLALLYSAFGVIIEKTRGAEDDLNTVAAGTMTGMLYKCTVSEMALDSPFCVLLSGS", 1.22]
]}
